Provide the recorded Affinity ELISA CPE mutant ratio (1:9, pH 6.0/7.4) for the entries that follow.
Target: T1, Axl protein (human, UniProt P30530 26-451)
T1 construct: extracellular domain; also called human Axl; hAxl
T1 sequence (looked up): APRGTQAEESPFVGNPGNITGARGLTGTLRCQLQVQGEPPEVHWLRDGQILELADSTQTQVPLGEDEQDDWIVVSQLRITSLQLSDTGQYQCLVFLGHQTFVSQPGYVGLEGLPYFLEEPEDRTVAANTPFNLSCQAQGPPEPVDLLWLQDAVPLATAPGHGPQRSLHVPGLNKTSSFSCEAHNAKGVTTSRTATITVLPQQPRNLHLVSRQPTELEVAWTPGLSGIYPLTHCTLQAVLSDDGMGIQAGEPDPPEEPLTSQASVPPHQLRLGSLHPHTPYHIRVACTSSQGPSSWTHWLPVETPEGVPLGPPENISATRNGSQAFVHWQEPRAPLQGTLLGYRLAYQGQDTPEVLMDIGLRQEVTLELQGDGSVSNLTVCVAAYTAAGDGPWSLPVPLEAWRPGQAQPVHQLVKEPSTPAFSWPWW
Assay: ELISA, 1:9 dilution, pH 6.0 over pH 7.4
Field: value (include unit after the number)

BINDER	REPORTED
HC-H100R (antibody, V domains shown) VH: EVQLVQSGAEVKKPGATVKISCKVSGYSFTGHTMNWIRQPPGKGLEWIGLIKPSNGGTSYNQKFKGRVTISADKSISTAYLQWSSLKASDTAMYYCAHGRYESYFAMDYWGQGTLVTVSS VL: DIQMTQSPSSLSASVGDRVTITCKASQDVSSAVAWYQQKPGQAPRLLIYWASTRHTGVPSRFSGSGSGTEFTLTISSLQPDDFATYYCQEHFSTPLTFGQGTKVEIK	2.51 ratio
HC-E102H (antibody, V domains shown) VH: EVQLVQSGAEVKKPGATVKISCKVSGYSFTGHTMNWIRQPPGKGLEWIGLIKPSNGGTSYNQKFKGRVTISADKSISTAYLQWSSLKASDTAMYYCAHGHYHSYFAMDYWGQGTLVTVSS VL: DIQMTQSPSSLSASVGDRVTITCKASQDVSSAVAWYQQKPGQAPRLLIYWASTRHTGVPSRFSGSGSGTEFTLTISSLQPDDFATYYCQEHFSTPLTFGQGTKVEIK	2.31 ratio

Value of measured Affinity ELISA CPE mutant ratio (1:9, pH 6.0/7.4) for the entry HC-A106L (antibody, V domains shown) VH: EVQLVQSGAEVKKPGATVKISCKVSGYSFTGHTMNWIRQPPGKGLEWIGLIKPSNGGTSYNQKFKGRVTISADKSISTAYLQWSSLKASDTAMYYCAHGHYESYFLMDYWGQGTLVTVSS VL: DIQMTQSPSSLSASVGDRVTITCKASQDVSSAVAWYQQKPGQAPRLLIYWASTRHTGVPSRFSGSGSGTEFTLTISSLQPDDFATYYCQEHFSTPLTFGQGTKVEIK : 1.61 ratio
